procedure.text: Bioavailability and pharmacokinetic studies in beagle dog model
Format: in vivo
assay.setup: male, beagle, dog, plasma, iv, 5 mg, dogs; intravenous bolus, 5 mg cladribine/animal; individual dogs PM01-PM06; read-out: Cltot/kg
measured.metric: clearance (mL/min/kg)
Give bare numbers, in mL/min/kg.

Short answer for Nc1nc(Cl)nc2c1ncn2[C@H]1C[C@H](O)[C@@H](CO)O1 [cladribine, 2-chloro-2′-deoxyadenosine] : clearance was 18.1

----------
procedure.text: Bioavailability and pharmacokinetic studies in beagle dog model
Format: in vivo
assay.setup: male, beagle, dog, plasma, iv, 5 mg, dogs; intravenous bolus, 5 mg cladribine/animal; individual dogs PM01-PM06; read-out: Cltot
measured.metric: clearance (mL/min)
One number for each entry, in mL/min.

The compound listed as Nc1nc(Cl)nc2c1ncn2[C@H]1C[C@H](O)[C@@H](CO)O1 [cladribine, 2-chloro-2′-deoxyadenosine] has a reported clearance of 217

All figures here come from patent US8623408B2.
